Hey, just so you know, these numbers are from patent US9926297B2.

- tested.on: human muscarinic M2 receptor (Homo sapiens)
- Sequence (P08172 whole entry): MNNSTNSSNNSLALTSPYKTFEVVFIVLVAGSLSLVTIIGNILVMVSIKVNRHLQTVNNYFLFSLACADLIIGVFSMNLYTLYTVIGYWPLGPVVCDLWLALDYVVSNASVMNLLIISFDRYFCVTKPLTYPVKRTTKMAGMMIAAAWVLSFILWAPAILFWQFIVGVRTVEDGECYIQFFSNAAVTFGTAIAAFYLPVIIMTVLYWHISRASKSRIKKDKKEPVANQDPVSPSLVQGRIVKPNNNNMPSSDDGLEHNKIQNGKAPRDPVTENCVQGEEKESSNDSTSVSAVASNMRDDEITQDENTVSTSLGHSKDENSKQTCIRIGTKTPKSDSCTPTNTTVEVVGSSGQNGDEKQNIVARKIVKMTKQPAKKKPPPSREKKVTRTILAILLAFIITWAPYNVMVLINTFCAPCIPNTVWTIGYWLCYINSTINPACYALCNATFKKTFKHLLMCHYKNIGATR
- procedure.text: Alphascreen Surefire phospho-ERK1/2 functional assay, M2
- condition.summary: CHO, read-out: % Emax cf. ACh, M2, CHO cells stably expressing human M2; relative to ACh
metric: Emax (%)
Numeric answer only, unit % assumed.

compound	unit.of.measure	Emax
CCNC(=O)N1CCCC1C1CCN(C2CC3(CCN(C(=O)OCC)C3)C2)CC1 (single isomer, unassigned) [2-19 Isomer 2]	%	3
CCOC(=O)N1CCC2(CC(N3CCC([C@@H]4CCCN4C(=O)COC)CC3)C2)C1 (single isomer, unassigned) [2-46 Isomer 2]	%	5
CCOC(=O)N1CCC2(CC(N3CCC(N4CCC(F)(F)CC4)CC3)C2)C1 (single isomer, unassigned) [4-14 Isomer 2]	%	55
CCOC(=O)N1CCC2(CC(N3CCC(N4CC(F)(F)C[C@@H]4C)CC3)C2)C1 (single isomer, unassigned) [2-106 Isomer 2]	%	10
CCOC(=O)N1CCC2(CC(N3CCC(c4nnc[nH]4)CC3)C2)C1 (single isomer, unassigned) [1-26 Isomer 2]	%	99

Asked: Please report the recorded Emax for CCOC(=O)N1CCC2(CC(N3CCC([C@@H]4CCCN4C(=O)OCCOC)CC3)C2)C1 (single isomer, unassigned) [2-50 Isomer 2] .
Given back: 4

Asked: Subsequent entry: CCOC(=O)N1CCC2(CC(N3CCC(C4CCCN4C(=O)OC)CC3)C2)C1 (single isomer, unassigned) [2-11 Isomer 2]
Given back: 7

Asked: Subsequent entry: CCOC(=O)N1CCC2(CC(N3CCC([C@@H]4CCCN4C(=O)OCCNC)CC3)C2)C1 (single isomer, unassigned) [2-67 Isomer 2]
Given back: 67

* * *

- tested.on: human muscarinic M1 receptor (Homo sapiens, UniProt P11229)
- Sequence (P11229 whole entry): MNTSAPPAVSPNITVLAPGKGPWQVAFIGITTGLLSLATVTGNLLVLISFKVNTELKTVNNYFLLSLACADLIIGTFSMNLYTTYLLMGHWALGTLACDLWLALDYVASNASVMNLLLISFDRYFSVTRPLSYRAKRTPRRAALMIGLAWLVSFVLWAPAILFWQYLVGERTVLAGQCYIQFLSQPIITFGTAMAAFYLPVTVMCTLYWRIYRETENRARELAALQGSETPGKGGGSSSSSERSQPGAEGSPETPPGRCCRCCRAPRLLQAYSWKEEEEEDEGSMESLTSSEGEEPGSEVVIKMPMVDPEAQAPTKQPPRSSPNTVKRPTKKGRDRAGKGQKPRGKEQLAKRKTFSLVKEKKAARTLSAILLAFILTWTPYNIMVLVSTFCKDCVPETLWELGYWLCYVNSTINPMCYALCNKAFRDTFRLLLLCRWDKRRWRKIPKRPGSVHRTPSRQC
- procedure.text: Alphascreen Surefire phospho-ERK1/2 functional assay, M1
- Type: cell-based
- condition.summary: CHO cells stably expressing human M1; phospho-ERK1/2; * = variable results
Entries and their pEC50 M1 values follow.
Lab note: record just the number, no unit beside it.

Worked examples follow.
molecule	pEC50 M1
CCOC(=O)N1CCC2(CC(N3CCC(C#N)(c4ccccn4)CC3)C2)C1 (single isomer, unassigned; isomer 2) [3-10 Isomer 2]	8.0
CCOC(=O)N1CCC2(CC(N3CCC(C#N)(c4ccccn4)CC3)C2)C1 (single isomer, unassigned; isomer 1) [3-10 Isomer 1]	5.9

Asked: Please report the recorded pEC50 M1 for CCOC(=O)N1CCC2(CC(N3CCC(c4c(C)cc[nH]c4=O)CC3)C2)C1 (single isomer, unassigned) [3-14 Isomer 2] .
Given back: 5.5

* * *

Entries and their % Emax cf. ACh, M2 values follow.
- tested.on: UniProt:P08172
- procedure.text: Alphascreen Surefire phospho-ERK1/2 functional assay, M2
- condition.summary: CHO cells stably expressing human M2; relative to ACh
Numeric answer only, unit % assumed.

Worked examples follow.
molecule	tested.on	metric	unit.of.measure	value.measured
CCOC(=O)N1CCC2(CC(N3CCC([C@@H]4CCCN4C(=O)N(C)OC)CC3)C2)C1 (single isomer, unassigned) [2-34 Isomer 2]	UniProt:P08172	% Emax cf. ACh, M2	%	3
CCOC(=O)N1CCC2(CC(N3CCC(N4CC(F)(F)C[C@@H]4C(C)O)CC3)C2)C1 (single isomer, unassigned) [2-109 Isomer 4]	UniProt:P08172	% Emax cf. ACh, M2	%	15
CCOC(=O)N1CCC2(CC(N3CCC([C@@H]4CCCN4C(=O)N(C)OC)CC3)C2)C1 (single isomer, unassigned) [2-34 Isomer 1]	UniProt:P08172	% Emax cf. ACh, M2	%	16
CCOC(=O)N1CCC2(CC(N3CCC(C4c5ccccc5CN4C(=O)NC)CC3)C2)C1 (single isomer, unassigned) [2-76 Isomer 2]	UniProt:P08172	% Emax cf. ACh, M2	%	16
CCOC(=O)N1CCC2(CC(N3CCC([C@@H]4CCCN4C(=O)NOC)CC3)C2)C1 (single isomer, unassigned) [2-33 Isomer 2]	UniProt:P08172	% Emax cf. ACh, M2	%	5

Asked: Tell me reported % Emax cf. ACh, M2 for CCOC(=O)N1CCC2(CC(N3CCC(C#N)(c4ccccn4)CC3)C2)C1 (single isomer, unassigned; isomer 1) [3-10 Isomer 1] , tested with UniProt:P08172.
Given back: 3

Asked: Subsequent entry: CCOC(=O)N1CCC2(CC(N3CCC(C#N)(c4ccccn4)CC3)C2)C1 (single isomer, unassigned; isomer 2) [3-10 Isomer 2]
Given back: 96

Asked: Subsequent entry: CCOC(=O)N1CCC2(CC(N3CCC(n4cc(C)cn4)CC3)C2)C1 (single isomer, unassigned) [1-34 Isomer 2]
Given back: 43

Asked: Subsequent entry: CCOC(=O)N1CCC2(CC(N3CCC([C@@H]4CCCN4C(=O)NCc4ccccn4)CC3)C2)C1 (single isomer, unassigned) [2-54 Isomer 2]
Given back: 8

Asked: Subsequent entry: CCOC(=O)N1CCC2(CC(N3CCC(n4cc(C)cn4)CC3)C2)C1 (single isomer, unassigned) [1-34 Isomer 1]
Given back: 10

Asked: Subsequent entry: CCOC(=O)N1CCC2(CC(N3CCC([C@@H]4CCCN4C(=O)NCc4ccccn4)CC3)C2)C1 (single isomer, unassigned) [2-54 Isomer 1]
Given back: 50

* * *

- tested.on: human muscarinic M3 receptor (Homo sapiens)
- Sequence (P20309 whole entry): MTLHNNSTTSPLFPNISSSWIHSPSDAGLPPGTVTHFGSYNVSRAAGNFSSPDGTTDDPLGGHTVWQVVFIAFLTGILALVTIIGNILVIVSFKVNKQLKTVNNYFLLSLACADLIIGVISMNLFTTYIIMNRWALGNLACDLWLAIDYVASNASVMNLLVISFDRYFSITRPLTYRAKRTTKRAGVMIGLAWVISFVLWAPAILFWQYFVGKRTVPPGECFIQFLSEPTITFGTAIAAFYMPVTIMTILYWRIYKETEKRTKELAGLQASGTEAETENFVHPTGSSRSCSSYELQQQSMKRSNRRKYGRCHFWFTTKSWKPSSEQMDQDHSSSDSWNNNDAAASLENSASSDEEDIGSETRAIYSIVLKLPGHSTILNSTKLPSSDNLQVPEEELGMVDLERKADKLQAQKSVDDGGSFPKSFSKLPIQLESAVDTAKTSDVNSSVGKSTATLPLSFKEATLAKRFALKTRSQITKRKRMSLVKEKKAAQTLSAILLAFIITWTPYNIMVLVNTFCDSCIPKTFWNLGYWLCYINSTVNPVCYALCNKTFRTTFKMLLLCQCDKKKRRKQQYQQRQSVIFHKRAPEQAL
- procedure.text: Alphascreen Surefire phospho-ERK1/2 functional assay, M3
- condition.summary: pEC50 M3, CHO cells stably expressing human M3; phospho-ERK1/2; * = variable results
Entries and their EC50 values follow.

Worked examples follow.
compound	value.measured
CCOC(=O)N1CCC2(CC(N3CCC(C4CCCN4)CC3)C2)C1 (single isomer, unassigned) [2-1 Isomer 2]	> 20 µM
CCOC(=O)N1CCC2(CC(N3CCC(c4cscn4)CC3)C2)C1 (single isomer, unassigned) [1-50 Isomer 2]	> 20 µM
CCOC(=O)N1CCC2(CC(N3CCC(c4cccc(OC)n4)CC3)C2)C1 (single isomer, unassigned) [3-13 Isomer 2]	> 20 µM
CCOC(=O)N1CCC2(CC(N3CCC(c4nccn4C(=O)OCC)CC3)C2)C1 (single isomer, unassigned) [1-8 Isomer 2]	> 20 µM
CCOC(=O)N1CCC2(CC(N3CCC([C@@H]4CCCN4C(=O)NC(C)C)CC3)C2)C1 (single isomer, unassigned) [2-25 Isomer 2]	> 20 µM

Asked: Tell me reported EC50 for CCOC(=O)N1CCC2(CC(N3CCC(n4ccc(C)n4)CC3)C2)C1 (single isomer, unassigned) [1-44 Isomer 2] , tested with human muscarinic M3 receptor (Homo sapiens).
Given back: > 20 µM

Asked: Subsequent entry: CCOC(=O)N1CCC2(CC(N3CCC(C4c5ccccc5CN4C(=O)NC)CC3)C2)C1 (single isomer, unassigned) [2-76 Isomer 1]
Given back: > 20 µM

* * *

Entries and their EC50 values follow.
- tested.on: human muscarinic M4 receptor (Homo sapiens, UniProt P08173)
- Construct: expressed in transfected cells
- Sequence (P08173 whole entry): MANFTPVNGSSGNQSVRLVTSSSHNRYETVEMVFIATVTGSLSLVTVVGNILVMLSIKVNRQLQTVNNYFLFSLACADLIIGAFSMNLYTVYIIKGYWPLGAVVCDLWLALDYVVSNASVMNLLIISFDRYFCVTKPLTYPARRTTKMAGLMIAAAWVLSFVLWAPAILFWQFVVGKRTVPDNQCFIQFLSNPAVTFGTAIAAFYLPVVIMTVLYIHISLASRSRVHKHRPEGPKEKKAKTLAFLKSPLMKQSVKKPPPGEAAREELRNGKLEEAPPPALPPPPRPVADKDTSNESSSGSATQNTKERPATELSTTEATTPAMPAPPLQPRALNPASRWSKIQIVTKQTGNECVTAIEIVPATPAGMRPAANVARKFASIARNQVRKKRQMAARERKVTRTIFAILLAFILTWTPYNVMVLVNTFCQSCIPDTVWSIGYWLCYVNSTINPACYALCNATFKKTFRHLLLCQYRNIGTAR
- procedure.text: Alphascreen Surefire phospho-ERK1/2 functional assay, M4
- Type: cell-based
- condition.summary: CHO cells stably expressing human M4; phospho-ERK1/2; * = variable results; read-out: pEC50 M4 (converted)
Numeric answer only, unit nM assumed.

Worked examples follow.
molecule	EC50, nM
CCOC(=O)N1CCC2(CC(N3CCC([C@@H]4CCCN4C(=O)NCC(F)F)CC3)C2)C1 (single isomer, unassigned) [2-45 Isomer 2]	5.01
CCOC(=O)N1CCC2(CC(N3CCC(N4C(=O)CC[C@@H]4C)CC3)C2)C1 (single isomer, unassigned) [2-115 Isomer 2]	25.1

Asked: Please report the recorded EC50 for CCOC(=O)N1CCC2(CC(N3CCC(N4C[C@H](F)C[C@@H]4CO)CC3)C2)C1 (single isomer, unassigned) [2-136 Isomer 2] .
Given back: 12.6

* * *

- tested.on: human muscarinic M1 receptor (Homo sapiens)
- procedure.text: Alphascreen Surefire phospho-ERK1/2 functional assay, M1
- Format: cell-based
- condition.summary: CHO, read-out: % Emax cf. ACh, M1, CHO cells stably expressing human M1; relative to ACh
Each record gets a class by Emax: Low: < 40%; Medium: ≥ 40% and < 60%; High: ≥ 60%

molecule	tested.on	class
[2H]C([2H])(C)OC(=O)N1CCC2(CC(N3CCC(n4cccn4)CC3)C2)C1 (single isomer, unassigned) [1-68 Isomer 2]	human muscarinic M1 receptor (Homo sapiens)	High

Asked: Form field 'band' for CCOC(=O)N1CCC2(CC(N3CCC([C@H]4CCCN4C(=O)NC)CC3)C2)C1 (single isomer, unassigned) [2-18 Isomer 2]
Given back: Low

Asked: Subsequent entry: CNC(=O)N1CCC[C@H]1C1CCN(C2CC3(CCN(C(=O)OC)C3)C2)CC1 (single isomer, unassigned) [2-15 Isomer 2]
Given back: High

Asked: Subsequent entry: CCOC(=O)N1CCC2(CC(N3CCC([C@@H]4CCCN4C(=O)N(C)Cc4ccccn4)CC3)C2)C1 (single isomer, unassigned) [2-63 Isomer 2]
Given back: Low

Asked: Subsequent entry: CCOC(=O)N1CCC2(CC(N3CCC(N4CCCC4c4nnn(C)n4)CC3)C2)C1 (single isomer, unassigned) [2-129 Isomer 2]
Given back: Low

Asked: Subsequent entry: COC(=O)N1CCC2(CC(N3CCC(c4nc(C)cn4C)CC3)C2)C1 (single isomer, unassigned) [1-11 Isomer 2]
Given back: High

Asked: Subsequent entry: CCn1nccc1C1CCN(C2CC3(CCN(C(=O)OC)C3)C2)CC1 (single isomer, unassigned) [1-46 Isomer 2]
Given back: Low

Asked: Subsequent entry: [2H]C([2H])([2H])COC(=O)N1CCC2(CC(N3CCC(n4cccn4)CC3)C2)C1 (single isomer, unassigned) [1-69 Isomer 2]
Given back: High

Asked: Subsequent entry: CCOC(=O)N1CCC2(CC(N3CCC([C@@H]4CCCN4C(=O)N(C)C)CC3)C2)C1 (single isomer, unassigned) [2-21 Isomer 2]
Given back: Medium

Asked: Subsequent entry: CCOC(=O)N1CCC2(CC(N3CCC([C@@H]4CCCN4C(=O)OCc4ccccn4)CC3)C2)C1 (single isomer, unassigned) [2-64 Isomer 2]
Given back: Low

Asked: Subsequent entry: [2H]C([2H])(C)OC(=O)N1CCC2(CC(N3CCC(c4ccnn4C)CC3)C2)C1 (single isomer, unassigned) [1-71 Isomer 2]
Given back: Low
